# Test system: M. tuberculosis H37Rv growth inhibition, 7H9 media
# test.name: M. tuberculosis growth inhibition, HTS (AID 449762);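 also: bacterial growth assessed after seven days of incubation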
# assay.context: measured here: IC90 growth inhibition
Inconclusive results are not listed.
quantity.measured: IC90 (µM)
Give a bare numeral; the unit µM is implied.

Take a look at these entries with their results.
compound	data.value
CC(C)(C)c1ccc(C(=O)NNc2cc(N3CCCCC3)nc(N3CCCCC3)n2)cc1	74.8
Nc1ccc(-c2nc3ccc(-c4nc5ccccc5o4)cc3[nH]2)cc1	41.6
COc1cc(NC(=O)C/C(C)=N/NC(=O)c2ccccn2)c(OC)cc1Cl	4.13

Could you tell me which IC90 is on file for O=c1[nH]c2ccccc2c2oc(CCl)nc12 ?
19.2

# input compound: O=S(=O)(Nc1ccc2[nH]ncc2c1)c1ccccc1Cl ; wanted: its IC90
19.5

Which IC90 value is on record for CCOc1ccc(OCCSc2ccc(S(=O)(=O)N3CCN(C)CC3)cn2)cc1 ?
28.6

Requested read-out: IC90. Entry: CC(C)(C)c1ccc(C(=O)N2CCN(CCNC(=O)C(=O)NCc3ccc(Cl)cc3)CC2)cc1
28.3

Data request, read-out IC90, for COc1ccc(-c2c[n+]3c4n2CCCCC4=C(c2ccccc2)C3)cc1
43.7

I am curious: what IC90 value has been reported for Cc1c([N+](=O)[O-])cnc(Sc2ccccc2)c1[N+](=O)[O-] ?
7.59

Fill in the blank: the reported IC90 of C=CCOc1ccc(C2C(C#N)=C(N)N(Nc3ccccc3)C3=C2C(=O)CC(C)(C)C3)cc1OC (stereo not given) is ____.
68.2

For the compound FC(F)(F)c1ccc(Nc2nnnc3ccccc23)cc1 , what IC90 is on record?
99.6

Report IC90 for CCC1C(c2ccccc2)N(C)C(c2ccccc2)CC1(O)c1ccccc1 (stereo not given) please.
25.5

Any idea what IC90 was measured for Cc1ccc(N2CCN(C(=O)c3cn(CC4CCCCC4)nn3)C(C)C2)cc1 (stereo not given) ?
12.4

Could you tell me which IC90 is on file for COc1ccc(SC[C@H](Cc2ccccc2)N2CCN(CCc3ccccc3)CCC2=O)cc1 ?
46.7

# query: IC90 of entry O=C(OCc1ccc([N+](=O)[O-])cc1)c1cc2ccccc2oc1=O
23.6

Requested read-out: IC90. Entry: CCOC1OC(=O)C(Cl)=C1Nc1ccccc1C (stereo not given)
6.18

May I ask what IC90 has been recorded for COc1ccccc1N1CCN(CCCCOc2cccc3ccccc23)CC1 ?
44.5

Can you share its IC90? I mean this compound: CCc1ccc2oc(-c3ccc(OC)cc3)cc(=Nc3c(C)n(C)n(-c4ccccc4)c3=O)c2c1
25.1

Using the record for O=C(Nc1ccc(OCC(F)(F)C(F)F)c(C(F)(F)F)c1)c1ccc(Cl)cc1 , report its IC90.
47.1

Return reported IC90; argument: CC1(C)CC(=O)C2=C(C1)NC(Nc1nc3ccccc3o1)=NC2c1ccccn1 (stereo not given)
2.31

Any idea what its IC90 is? The compound is CCCN(CCC)CCNC(=O)c1cc2c(-c3ccc(Cl)cc3)nn(C)c2s1
27.7

# IC90 lookup, item CCC1=C(OC(=O)N(CC)CC)N2C(=O)OC(=NCCc3c[nH]c4ccccc34)[C@]2(Cc2ccccc2)[C@H]2C1=CC[C@H]1C(=O)NC(=O)[C@H]12
44.8

Entry O=C1c2ccccc2S(=O)(=O)c2cc(C(=O)N3CCN(c4c(Cl)cncc4Cl)CC3)ccc21 has what IC90?
46.5

Which IC90 is listed for O=C1NCN(c2ccccc2)C12CCN(CCCC(c1ccc(F)cc1)c1ccc(F)cc1)CC2 ?
47.1

---

# System: M. tuberculosis H37Rv growth inhibition, 7H9 media
# test.name: M. tuberculosis growth inhibition, HTS (AID 449762);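 also: bacterial growth assessed after seven days of incubation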
# assay.context: measured here: IC90 growth inhibition
Records with an inconclusive call do not appear.
quantity.measured: IC90 (µM)
Give a bare numeral; the unit µM is implied.

compound	target.entity	IC90 [µM]
CC[N+](C)(CC)CCCCOc1ccc2c(c1)C(=O)c1cc(OCCCC[N+](C)(CC)CC)ccc1-2	M. tuberculosis H37Rv growth inhibition, 7H9 media	1.52
O=[N+]([O-])c1ccc(-n2cnc3ccccc32)c([N+](=O)[O-])c1	M. tuberculosis H37Rv growth inhibition, 7H9 media	5.96
C/C(=N\NC(N)=S)C1C2C3CC4C5CC(C42)C1C53 (stereo not given)	M. tuberculosis H37Rv growth inhibition, 7H9 media	58.2

Turning now to a further compound:
For the compound shown here, Cn1nc(-c2ccccc2F)c2cc(C(=O)Nc3ccc4c(c3)OCCO4)sc21 , give the reported IC90.
35.5

---

# System: M. tuberculosis H37Rv growth inhibition, 7H9 media
# test.name: M. tuberculosis growth inhibition, HTS (AID 449762);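 also: bacterial growth assessed after seven days of incubation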
# assay.context: measured here: IC90 growth inhibition
Records with an inconclusive call do not appear.
Quick reference: IC90 of the listed items.
Form entry: value (µM) — number only.

What IC90 value was documented for this molecule, O=C1Nc2ccccc2/C1=N\N=C\C1=C(N2CCOCC2)C(=C\c2ccccc2)/CC1 ?
59.8

// IC90 lookup, key: Cc1nc(NC(=O)CC(C)C)sc1-c1csc(Nc2ccc(Cl)cc2Cl)n1
52.5

---

# Tested on: M. tuberculosis H37Rv growth inhibition, 7H9 media
# test.name: M. tuberculosis growth inhibition, HTS (AID 449762);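 also: bacterial growth assessed after seven days of incubation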
# assay.context: measured here: IC90 growth inhibition
Records with an inconclusive call do not appear.
Fulfilled if IC90 is below 10 µM. Not fulfilled if not; exact matches included in Not fulfilled.

compound	target.entity	assigned.label
O=C(c1ccccc1)c1ccc(OCCOCCN2CCN(Cc3ccccc3)CC2)cc1	M. tuberculosis H37Rv growth inhibition, 7H9 media	Not fulfilled

Please determine if O=C(N/N=C\C=C\c1ccc([N+](=O)[O-])o1)c1cccs1 is below 10 µM in terms of IC90.
Fulfilled

---

# IC90 per record follows
# Tested on: M. tuberculosis H37Rv growth inhibition, 7H9 media
# test.name: M. tuberculosis growth inhibition, HTS (AID 449762);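 also: bacterial growth assessed after seven days of incubation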
# assay.context: measured here: IC90 growth inhibition
Results filed as inconclusive are left out.
Express your answer in µM, writing the number without its unit.

These recorded examples may help you get a feel for the data.
compound	IC90 [µM]
Cc1ccc(N2C(=O)C(F)(F)C2c2ccccc2)cc1 (stereo unspecified)	5.46
Cc1nc(NCCc2ccccc2)c2oc3ccccc3c2n1	14.2
CCOc1ccc(-c2cnc(NCc3cccc4ccccc34)n2CCOC)cc1	8.14
Cc1ccc2[nH]c(C)c(CCNC(=O)c3cc4cc([N+](=O)[O-])ccc4oc3=O)c2c1	16.5
Cc1occc1-c1nnc(SCC(=O)NCCc2ccccc2)o1	20

Entry COc1ccc(-c2cc(C3CCN(C(=O)OC(C)(C)C)CC3)[nH]n2)cc1 has what IC90?
30.6

What IC90 value was documented for this compound, CC(C)Nc1nc(NC(C)C)nc(N(C)N)n1 ?
7.57

---

The entries below are paired with their reported IC90.
# System: M. tuberculosis H37Rv growth inhibition, 7H9 media
# test.name: M. tuberculosis growth inhibition, HTS (AID 449762);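 also: bacterial growth assessed after seven days of incubation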
# assay.context: measured here: IC90 growth inhibition
Records with an inconclusive call do not appear.
Report as a plain number; the unit µM is understood.

Worked cases, IC90 given:
molecule	data.value
CN(Cc1ccc(Cl)s1)C(=O)CCl	0.91
N#C/C=C\Oc1ccc(Cl)cc1N	23.3
Cc1cc(N2CCC(C)CC2)nc(-n2nc(C)cc2C)n1	5.47

Tell me the measured IC90 of CCCCNc1c(-c2ccc(SC3CCCCC3)c(OC)c2)nc2ccc(C)cn12 , please.
12.8

Can you look up the measured IC90 of CCC1CSC(Nc2ccc(C(=O)/C=C/c3cccc(C)c3)cc2)=N1 (configuration not stated) for me?
27.3

For the molecule CCN(CC)c1ccc(/C=C2\SC(=O)N(C(C)C)C2=O)o1 , what IC90 is on record?
4.79

For the molecule shown here, O=C(OCC(=O)c1c[nH]c2ccccc12)c1cc(Br)ccc1O , give the reported IC90.
15.3

Quick check: IC90 of C=CCNCC(=O)N1N=C(c2ccc3ccccc3c2)CC1c1ccc(OC)cc1 (configuration not stated) ?
24.3

GET /values?readout=IC90&item= CNc1ccc2nc3ccccc3[n+](C)c2c1
2.34

What value of measured IC90 is listed for COC(=O)c1[nH]c2cc(OC)ccc2c1NC(=O)CN1CCN(c2cccc(C)c2)C(C)C1 (configuration not stated) ?
40.2

---

# System: M. tuberculosis H37Rv growth inhibition, 7H9 media
# test.name: M. tuberculosis growth inhibition, HTS (AID 449762);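 also: bacterial growth assessed after seven days of incubation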
# assay.context: measured here: IC90 growth inhibition
Inconclusive results are not listed.
quantity.measured: IC90 (µM)
Write the value in µM as a bare number.

compound	target.entity	IC90 (µM)
CC(=O)O[C@H]1C[C@@]2(C)[C@@H](C[C@@H](O)[C@H]3[C@@]4(C)CC[C@@H](O)[C@@H](C)[C@@H]4CC[C@@]32C)/C1=C(\CCC=C(C)C)C(=O)O	M. tuberculosis H37Rv growth inhibition, 7H9 media	4.42
COc1cc(/C=C(\C#N)c2nc3c(s2)CC(C)CC3)ccc1O (centres undefined)	M. tuberculosis H37Rv growth inhibition, 7H9 media	63.5
CCCCCCCCCCC[N+](C)(C)CC/C=C1/c2ccccc2Sc2ccc(Cl)cc21	M. tuberculosis H37Rv growth inhibition, 7H9 media	8.09
Cc1ccc(C(=O)N/C(=C/c2ccco2)C(=O)OCN2C(=O)c3ccccc3C2=O)cc1	M. tuberculosis H37Rv growth inhibition, 7H9 media	49.9
O=C(c1ccc(CNc2c(N3CCCC3)c(=O)c2=O)cc1)N1CC=C(c2ccccc2)CC1	M. tuberculosis H37Rv growth inhibition, 7H9 media	0.87

Value lookup for IC90; key = CCc1noc(C)c1C(=O)Nc1nc(-c2ccc(F)cc2)c(C)s1
36.9

What value of measured IC90 is listed for Cc1ccc(C2=NN(C)c3nc4ccccc4n3C2)cc1 ?
78.3

Look at this compound and give its reported IC90. CN1CCc2cc3c(c4c2C1Cc1ccccc1-4)OCO3 (centres undefined)
1.94

Quick one: IC90 of O=C(NCC(c1cccs1)N1CCOCC1)c1cc([N+](=O)[O-])cc([N+](=O)[O-])c1 (centres undefined) ?
0.81

Look up IC90: O=C(Nc1cccc(-c2ccc(N3CCCCC3)nn2)c1)c1ccc(Br)o1
42.4

What value of IC90 has been recorded for this entry: Cc1ccc(C(=O)CC(SCC(=O)O)c2ccc([N+](=O)[O-])cc2)cc1 (centres undefined)
6.72

Which IC90 value is on record for Cc1ccc(OC(=O)c2oc3ccc(F)cc3c2C)c(C)c1 ?
18.6

src = PubChem BioAssay AID449762
